- measurement-protocol: leaching of Japan cedar blocks treated with LSA and chemical agents (Example 4)
- Type: physicochemical
- condition-context: in the absence of enzyme (comparison), 5% LSA, pH 8.1-8.8
property-label: Elution Rate (%) LSA

Measured Elution Rate (%) LSA, CC1=CCC(C(C)(C)O)CC1 (stereo not drawn) [500 ppm α-terpineol, α-terpineol] : 24.5%

Just so you know, measured Elution Rate (%) LSA for CC(C)=CCCC(C)=CC=O [100 ppm citral, citral] came out at 23.4%

Elution Rate (%) LSA for O=C(OC[C@H]1O[C@@H](OC(=O)c2cc(O)c(O)c(OC(=O)c3cc(O)c(O)c(O)c3)c2)[C@H](OC(=O)c2cc(O)c(O)c(OC(=O)c3cc(O)c(O)c(O)c3)c2)[C@@H](OC(=O)c2cc(O)c(O)c(OC(=O)c3cc(O)c(O)c(O)c3)c2)[C@@H]1OC(=O)c1cc(O)c(O)c(OC(=O)c2cc(O)c(O)c(O)c2)c1)c1cc(O)c(O)c(OC(=O)c2cc(O)c(O)c(O)c2)c1 [500 ppm Tannic acid, Tannic acid] is 24.2%

// recorded Elution Rate (%) LSA for OB(O)O [1% Boric acid, Boric acid] : 22.1%

The reported value for O=CC=Cc1ccccc1 [100 ppm Cinnamaldehyde, Cinnamaldehyde] in terms of Elution Rate (%) LSA is 22.1%

Data point: Cc1cc2cccc(C)c2cc1C [10 ppm 2,3,5-Trimethylnaphthalene, 2,3,5-Trimethylnaphthalene] ; Elution Rate (%) LSA = 23.3%

====

Task for the reader: assign each of the following compounds its reported Elution Rate (%) Chemical Agent.
- measurement-protocol: leaching of Japan cedar blocks, treating mixture with tung oil (Example 8)
- Format: physicochemical
- condition-context: Example 1 enzyme, 5% LSA, 2,000 ppm tung oil, pH 8.1-8.5, species as bracketed (Copper, Zinc, Nickel, H = hinokitiol), else the agent named

Value of measured Elution Rate (%) Chemical Agent for the entry `CC12CCC(CC1)C(C)(C)O2` : 0.2%

Quick note, Elution Rate (%) Chemical Agent for CC1CCC(C(C)C)C(O)C1 [500 ppm (1R,2S,5R)-(−)-menthol, (1R,2S,5R)-(−)-menthol] landed at 0.4%

Form: compound = CC(C)=CCCC(C)CCO (centres unmarked) ; Elution Rate (%) Chemical Agent = 0.2%

Note to self: Elution Rate (%) Chemical Agent recorded for CC1=CCC(C(C)(C)O)CC1 (centres unmarked) was 0.3%

Measured Elution Rate (%) Chemical Agent of `O=CC=Cc1ccccc1` : 0.2%

====

- measurement-protocol: leaching of Japan cedar blocks treated with LSA and chemical agents (Example 4)
- Format: physicochemical
- condition-context: in the presence of enzyme, 5% LSA, pH 8.1-8.8; species measured as bracketed (Copper, Zinc, Nickel, Boron, H = hinokitiol), else the agent named
property-label: Elution Rate (%) Chemical Agent

Lookup result for CC(C)=CCCC(C)CCO (stereo not shown) ; measured Elution Rate (%) Chemical Agent: 0.4%

CC1CCC(C(C)C)C(O)C1 [500 ppm (1R,2S,5R)-(−)-menthol, (1R,2S,5R)-(−)-menthol] has a reported Elution Rate (%) Chemical Agent of 0.2%

Recorded Elution Rate (%) Chemical Agent (compound `O=C(OC[C@H]1O[C@@H](OC(=O)c2cc(O)c(O)c(OC(=O)c3cc(O)c(O)c(O)c3)c2)[C@H](OC(=O)c2cc(O)c(O)c(OC(=O)c3cc(O)c(O)c(O)c3)c2)[C@@H](OC(=O)c2cc(O)c(O)c(OC(=O)c3cc(O)c(O)c(O)c3)c2)[C@@H]1OC(=O)c1cc(O)c(O)c(OC(=O)c2cc(O)c(O)c(O)c2)c1)c1cc(O)c(O)c(OC(=O)c2cc(O)c(O)c(O)c2)c1` ): 4.0%

Reported Elution Rate (%) Chemical Agent for `CC(C)c1cccc(=O)c(O)c1` was 3.1%
